# Tested on: K562
# Procedure text: NCI tumour cell line growth inhibition, 48 h
The source made the active and inactive calls. Rule as the data show it: active = GI50 up to about 1.1 µM and inactive = higher.
Observation type: GI50

Would you please look over these solved cases?
Ask | Need GI50 of N#CC1Nc2ccccc2[C@@H](O)C1O (some centres undefined) , thanks.
Reply | > 100 µM (inactive)

Ask | Need GI50 of COC(=O)c1cc2c(cc1CC(Cc1ccc3c(c1)CCCC3)C(=O)OC)CCCC2 (centres undefined) , thanks.
Reply | 40.1 µM (inactive)

Ask | Need GI50 of CC(C(=O)C(C)O[Si](c1ccccc1)(c1ccccc1)C(C)(C)C)=P(c1ccccc1)(c1ccccc1)c1ccccc1 (centres undefined) , thanks.
Reply | 2.95 µM (inactive)

Ask | Need GI50 of `Cn1cc(C(=O)c2nccc3c2cnc2ccccc23)ccc1=O` , thanks.
Reply | > 100 µM (inactive)

Ask | Need GI50 of COC(=O)C1=C(C(=O)OC)C(Cc2ccccc2)(OO)OC1=O (centres undefined) , thanks.
Reply | 2.7 µM (inactive)

Ask | Need GI50 of CC1CCC2(CC1)NC1=C(CC(C)CC1)C1=C2CC(C)CC1 (centres undefined) , thanks.
Reply | 17.2 µM (inactive)

Could I get GI50 for every one of these entries?
1. O=C1c2sc(-c3ccc(Cl)cc3)cc2-n2cccc21
2. Cn1cnc([N+](=O)[O-])c1Sc1nc2cc([N+](=O)[O-])ccc2[nH]1
3. CN(c1nc(=[N+](C)C)ss1)C1CCCCC1
4. CCNC(=O)Cc1nc2c(O)ncnc2n1C1OC(CO)C(O)C1O (centres undefined)
5. COc1cc(C2c3cc4c(cc3[C@@H](NCCN3CCOCC3)C3COC(=O)[C@H]23)OCO4)cc(OC)c1O (some centres undefined)
6. CC1(C)c2ccccc2C(C)(C)C(C(=O)Nc2ccccc2)C1C(=O)O (centres undefined)
7. COC(=O)c1ccc(S)c(S(=O)(=O)Nc2nc(N)n[nH]2)c1
8. CN(CCO)c1nc(=O)c2c([nH]1)CCC2

Reply |
1: > 100 µM (inactive); 2: 24.8 µM (inactive); 3: > 100 µM (inactive); 4: > 100 µM (inactive); 5: 3.01 µM (inactive); 6: > 100 µM (inactive); 7: > 100 µM (inactive); 8: > 100 µM (inactive)
